Tested on: HLA-A*24
method: MHC binding assay, UV-ligand exchange with beta2m ELISA, HLA-A*24
Set-up: species or system human
details: binding to HLA-A*24 ranged by peptide exchange yield (UV-ligand exchange, beta2m ELISA)
parameter-measured: Peptide exchange

361 (TYADIGGLDNQI; listed as Homo sapiens) [compound 361] :: +++ (50%-75% = +++)
375 (KYTDYILKI; listed as Homo sapiens) [compound 375] :: +++ (50%-75% = +++)

###

system-tested: HLA-A*02 (Homo sapiens, UniProt P04439, D140Y/D185E/D98H/E176V/E277Q/G131W/G231S/I119V/I121R/I166T/I218V/L300P/N151K/N90K/P208A/P217A/Q86G/Q94H/R138H/R169H)
method: MHC binding assay, UV-ligand exchange with beta2m ELISA, HLA-A*02
details: binding to HLA-A*02 ranged by peptide exchange yield (UV-ligand exchange, beta2m ELISA)
parameter-measured: Peptide exchange

Would you please look over these solved cases?
92 (LLRGPPVARA; listed as Homo sapiens) [compound 92] :: ++ (20%-49% = ++)
88 (ILLNTEDLASL; listed as Homo sapiens) [compound 88] :: +++ (50%-75% = +++)
38 (KMQEDLVTL; listed as Homo sapiens) [compound 38] :: +++ (50%-75% = +++)
74 (ILDETLENV; listed as Homo sapiens) [compound 74] :: ++ (20%-49% = ++)
87 (YLTEVFLHVV; listed as Homo sapiens) [compound 87] :: +++ (50%-75% = +++)

API: the following record is the query input.
Kindly note the recorded Peptide exchange for 89 (YLVAHNLLL; listed as Homo sapiens) [compound 89] , which is +++ (50%-75% = +++)

###

Tested on: HLA-A*24
method: MHC binding assay, UV-ligand exchange with beta2m ELISA, HLA-A*24
Set-up: species or system human
details: binding to HLA-A*24 ranged by peptide exchange yield (UV-ligand exchange, beta2m ELISA)
parameter-measured: Peptide exchange

Answered examples (4):
128 (VYPFDWQYI; listed as Homo sapiens) [compound 128] :: ++++ (>=75% = ++++)
229 (IYQFVADSF; listed as Homo sapiens) [compound 229] :: +++ (50%-75% = +++)
378 (VYIAELEKI; listed as Homo sapiens) [compound 378] :: +++ (50%-75% = +++)
301 (KFDDVTMLF; listed as Homo sapiens) [compound 301] :: ++++ (>=75% = ++++)

// substance 201 (GYNPNRVFF; listed as Homo sapiens) [compound 201] , assay HLA-A*24, Peptide exchange value: +++ (50%-75% = +++)

Tested on HLA-A*24, the item 168 (RYLEAALRL; listed as Homo sapiens) [compound 168] showed Peptide exchange equal to +++ (50%-75% = +++)

###

Test system: HLA-A*24
method: MHC binding assay, UV-ligand exchange with beta2m ELISA, HLA-A*24
Parameters: species or system human
details: binding to HLA-A*24 ranged by peptide exchange yield (UV-ligand exchange, beta2m ELISA)
parameter-measured: Peptide exchange

312 (SYTSVLSRL; listed as Homo sapiens) [compound 312] :: +++ (50%-75% = +++)
119 (VYRVYVTTF; listed as Homo sapiens) [compound 119] :: +++ (50%-75% = +++)
294 (RFPVQGTVTF; listed as Homo sapiens) [compound 294] :: +++ (50%-75% = +++)
234 (SYLPAIWLL; listed as Homo sapiens) [compound 234] :: +++ (50%-75% = +++)

Lookup result for 216 (FYVNVKEQF; listed as Homo sapiens) [compound 216] ; measured Peptide exchange: +++ (50%-75% = +++)

The substance listed as 107 (KYFPYLVVI; listed as Homo sapiens) [compound 107] has a reported Peptide exchange of +++ (50%-75% = +++)

Peptide exchange recorded for this substance, 363 (SYAELGTTI; listed as Homo sapiens) [compound 363] , is ++ (20%-49% = ++)

Peptide exchange measured on 381 (KYPASSSVF; listed as Homo sapiens) [compound 381] = +++ (50%-75% = +++)

// 265 (SYLNEAFSF; listed as Homo sapiens) [compound 265] : Peptide exchange value = ++++ (>=75% = ++++)

The recorded Peptide exchange for entry 377 (QYTPHSHQF; listed as Homo sapiens) [compound 377] equals +++ (50%-75% = +++)

Lookup result for 250 (KYPDIASPTF; listed as Homo sapiens) [compound 250] ; measured Peptide exchange: ++ (20%-49% = ++)

Looking up 318 (TYSNSAFQYF; listed as Homo sapiens) [compound 318] , I found its Peptide exchange recorded as +++ (50%-75% = +++)

###

Tested on: HLA-A*24
method: MHC binding assay, UV-ligand exchange with beta2m ELISA, HLA-A*24
Design: species or system human
details: binding to HLA-A*24 ranged by peptide exchange yield (UV-ligand exchange, beta2m ELISA)
parameter-measured: Peptide exchange

Completed entries (count: 5):
223 (TFITQSPLL; listed as Homo sapiens) [compound 223] :: ++++ (>=75% = ++++)
249 (RYHPTTCTI; listed as Homo sapiens) [compound 249] :: ++++ (>=75% = ++++)
286 (SYGTILSHI; listed as Homo sapiens) [compound 286] :: ++++ (>=75% = ++++)
165 (EYFTPLLSGQF; listed as Homo sapiens) [compound 165] :: +++ (50%-75% = +++)
103 (NYIPVKNGKQF; listed as Homo sapiens) [compound 103] :: +++ (50%-75% = +++)

// moving on: another record for Peptide exchange
Notebook: 177 (VYFKAGLDVF; listed as Homo sapiens) [compound 177] , Peptide exchange read as +++ (50%-75% = +++)

###

Test system: HLA-A*24
method: MHC binding assay, UV-ligand exchange with beta2m ELISA, HLA-A*24
Set-up: species or system human
details: binding to HLA-A*24 ranged by peptide exchange yield (UV-ligand exchange, beta2m ELISA)
parameter-measured: Peptide exchange

Previously resolved entries follow.
315 (FYIPHVPVSF; listed as Homo sapiens) [compound 315] :: +++ (50%-75% = +++)
185 (QYLVHVNDL; listed as Homo sapiens) [compound 185] :: ++++ (>=75% = ++++)
379 (VFIAQGYTL; listed as Homo sapiens) [compound 379] :: ++++ (>=75% = ++++)
149 (SYGTVSQI; listed as Homo sapiens) [compound 149] :: ++++ (>=75% = ++++)
231 (AFADVSVKF; listed as Homo sapiens) [compound 231] :: ++++ (>=75% = ++++)
157 (DYIPASGFALF; listed as Homo sapiens) [compound 157] :: +++ (50%-75% = +++)
373 (GYISNGELF; listed as Homo sapiens) [compound 373] :: +++ (50%-75% = +++)
182 (AYAQLGYLLF; listed as Homo sapiens) [compound 182] :: ++++ (>=75% = ++++)

In plain terms, 271 (RFLMKSYSF; listed as Homo sapiens) [compound 271] has a documented Peptide exchange of ++++ (>=75% = ++++)

The substance 239 (VYAIFRILL; listed as Homo sapiens) [compound 239] showed Peptide exchange equal to +++ (50%-75% = +++)

Just so you know, measured Peptide exchange for 173 (QYLEKYYNL; listed as Homo sapiens) [compound 173] came out at ++++ (>=75% = ++++)

Peptide exchange reading for 202 (RYVEGIVSL; listed as Homo sapiens) [compound 202] : +++ (50%-75% = +++)

###

system-tested: HLA-A*02 (Homo sapiens, UniProt P04439, D140Y/D185E/D98H/E176V/E277Q/G131W/G231S/I119V/I121R/I166T/I218V/L300P/N151K/N90K/P208A/P217A/Q86G/Q94H/R138H/R169H)
method: MHC binding assay, UV-ligand exchange with beta2m ELISA, HLA-A*02
details: binding to HLA-A*02 ranged by peptide exchange yield (UV-ligand exchange, beta2m ELISA)
Description: Candidate peptides for T cell based therapies according to the present invention were further tested for their MHC binding capacity (affinity). The individual peptide-MHC complexes were produced by UV-ligand exchange, where a UV-sensitive peptide is cleaved upon UV-irradiation, and exchanged with the peptide of interest as analyzed. Only peptide candidates that can effectively bind and stabilize the peptide-receptive MHC molecules prevent dissociation of the MHC complexes. […]
parameter-measured: Peptide exchange

331 (AIWKELISL; listed as Homo sapiens) [compound 331] :: +++ (50%-75% = +++)
7 (AAAAKVPEV; listed as Homo sapiens) [compound 7] :: +++ (50%-75% = +++)
65 (KLDGICWQV; listed as Homo sapiens) [compound 65] :: +++ (50%-75% = +++)
